Data provenance is ChEMBL document CHEMBL2203228.

Assay: Clearance in rat
Format: ADME, organism-based
Conditions: in vivo
Quantity kind: clearance (L/h/kg)
Note: unit L/h/kg is implicit; provide only the numeric part.

Short answer for COc1cc(-c2nn(C(C)C)cc2-c2ccnc(NC[C@H](C)O)n2)cnc1N : clearance was 3.38

* * *

Experiment: Solubility of the compound
Format: physicochemical
Quantity kind: solubility (µM)
Note: unit µM is implicit; provide only the numeric part.

Short answer for COc1cc(-c2nn(C(C)C)cc2-c2ccnc(NC[C@H](C)O)n2)cnc1N : solubility was 503

* * *

Assay: Oral bioavailability in rat
Type: ADME, organism-based
Conditions: in vivo
Quantity kind: bioavailability (%)
Note: unit % is implicit; provide only the numeric part.

Short answer for COc1cc(-c2nn(C(C)C)cc2-c2ccnc(NC[C@H](C)O)n2)cnc1N : bioavailability was 43

* * *

So I've got a bunch of compounds here, and I need their Activity values.
Target: Cytochrome P450 3A4 (Homo sapiens, UniProt P08684)
Sequence (P08684 whole entry): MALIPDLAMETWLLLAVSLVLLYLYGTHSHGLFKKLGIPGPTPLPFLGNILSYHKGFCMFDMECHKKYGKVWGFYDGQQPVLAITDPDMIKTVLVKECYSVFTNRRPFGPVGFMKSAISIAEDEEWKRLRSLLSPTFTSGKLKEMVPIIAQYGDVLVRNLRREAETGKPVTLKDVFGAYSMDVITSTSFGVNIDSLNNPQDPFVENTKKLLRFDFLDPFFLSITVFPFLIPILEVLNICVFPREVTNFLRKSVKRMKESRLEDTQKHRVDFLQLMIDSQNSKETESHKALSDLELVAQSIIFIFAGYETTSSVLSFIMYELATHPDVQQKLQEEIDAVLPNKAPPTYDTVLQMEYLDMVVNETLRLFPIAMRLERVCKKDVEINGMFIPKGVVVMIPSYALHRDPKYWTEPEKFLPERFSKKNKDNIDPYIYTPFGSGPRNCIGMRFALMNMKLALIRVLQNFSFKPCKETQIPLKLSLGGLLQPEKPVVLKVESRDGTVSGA
Assay: Time dependent inhibition of human liver microsome CYP3A4 assessed as change in midazolam metabolism at 60 uM by two-step reaction
Assay type: ADME
Design: scale not given: the % may be the effect or the level left
Conditions: microsomes

Short answer for CC(C)n1cc(-c2ccnc(NC[C@H](C)O)n2)c(-c2cnc3[nH]ncc3c2)n1 : Activity was < 30%

Short answer for COc1cncc(-c2nn(C(C)C)cc2-c2ccnc(NC[C@H](C)O)n2)c1 : Activity was < 30%

Short answer for CC(=O)c1cc(-c2nn(C(C)C)cc2-c2ccnc(NC[C@H](C)O)n2)cnc1N : Activity was < 30%
